For each record, write down the corresponding protein stability index.
B1: ALDH8A1 (parent)
chain: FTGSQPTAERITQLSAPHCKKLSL

variants of: B1; test: protein stability index of a GFP-peptide fusion (GPS, HEK-293T) (PSI 1-6); higher = more stable; details: c terminus: a fixed tail appended;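 note: lentivirally expressed fusions sorted by FACS into six bins by GFP to DsRed ratio, PSI derived from sequencing read proportions per bin multiplied by bin number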
One number for each entry.

INSERT INTO results (mutation_spec, result_type, number) VALUES
  ('L22W', 'protein stability index', 2.19);

For each entry beneath this line, provide reported protein stability index.
1. K20L
2. E9G
3. H18E

Result:
1.84
2.1
1.78
